These measurements were taken from PubChem BioAssay AID2060898.

System: 616215-338-R-J1-PDC complex spheroid viability
Assay: Anticancer human tumor 616215-338-R-J1-PDC patient-derived colon adenocarcinoma cell line growth inhibition [RAS]
Details: second compound 0.000949 µM; first compound 0.00949 µM; stronger effect = lower value
Measured Property: viability, T/C

Compound	Measured Property	Value Reported
CCc1c2c(nc3ccc(O)cc13)-c1cc3c(c(=O)n1C2)COC(=O)[C@]3(O)CC + CCn1c(-c2cc(N3CCN(C)CC3)cnc2C(C)OC)c2c3cc(ccc31)-c1csc(n1)CC(NC(=O)C1CC1C)C(=O)N1CCCC(N1)C(=O)OCC(C)(C)C2	viability, T/C	51.5%
CC1(C)CCC(Nc2ncc(C(F)(F)F)c(-c3c[nH]c4c(P(C)(C)=O)c(C#N)ccc34)n2)CN1 (centres undefined) + CCn1c(-c2cccnc2C(C)OC)c2c3cc(ccc31)N1CCOC(CC(NC(=O)C(C(C)C)N(C)C(=O)C3(F)CCN(C(=O)C#CC(C)(C)N(C)C)CC3)C(=O)N3CCCC(N3)C(=O)OCC(C)(C)C2)C1	viability, T/C	62.8%
CC1(C)CCC(Nc2ncc(C(F)(F)F)c(-c3c[nH]c4c(P(C)(C)=O)c(C#N)ccc34)n2)CN1 (centres undefined) + CCn1c(-c2cc(N3CCN(C)CC3)cnc2C(C)OC)c2c3cc(ccc31)-c1csc(n1)CC(NC(=O)C1CC1C)C(=O)N1CCCC(N1)C(=O)OCC(C)(C)C2	viability, T/C	65.2%
CCc1c2c(nc3ccc(O)cc13)-c1cc3c(c(=O)n1C2)COC(=O)[C@]3(O)CC + CCn1c(-c2cccnc2C(C)OC)c2c3cc(ccc31)N1CCOC(CC(NC(=O)C(C(C)C)N(C)C(=O)C3(F)CCN(C(=O)C#CC(C)(C)N(C)C)CC3)C(=O)N3CCCC(N3)C(=O)OCC(C)(C)C2)C1	viability, T/C	56.8%

----------
Tested on: 616215-338-R-J1-PDC complex spheroid viability
Experiment: Anticancer human tumor 616215-338-R-J1-PDC cell line growth inhibition [RAS];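 further: spheroids exposed to agents for seven days before viability readout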
Conditions: curve of first compound; second compound 0.00949 µM
pIC50: −log10 of the molar value.
Listed below: pIC50 values for each entry.

Compound	Value Qualifier	pIC50
CC(Nc1ccc2c(c1)OCCn1cc(N3C(=O)OCC3C(F)F)nc1-2)C(N)=O (stereo not drawn) + CCn1c(-c2cccnc2C(C)OC)c2c3cc(ccc31)N1CCOC(CC(NC(=O)C(C(C)C)N(C)C(=O)C3(F)CCN(C(=O)C#CC(C)(C)N(C)C)CC3)C(=O)N3CCCC(N3)C(=O)OCC(C)(C)C2)C1	<	5.00
CCC(CC)c1cc(NC2CCC(N)C2)n2nccc2n1 (stereo not drawn) + CCn1c(-c2cccnc2C(C)OC)c2c3cc(ccc31)N1CCOC(CC(NC(=O)C(C(C)C)N(C)C(=O)C3(F)CCN(C(=O)C#CC(C)(C)N(C)C)CC3)C(=O)N3CCCC(N3)C(=O)OCC(C)(C)C2)C1	=	5.75
Cc1nc(N2CCC3(CC2)COC(C)C3N)c(CO)nc1Sc1ccnc(N)c1Cl (stereo not drawn) + CCn1c(-c2cc(N3CCN(C)CC3)cnc2C(C)OC)c2c3cc(ccc31)-c1csc(n1)CC(NC(=O)C1CC1C)C(=O)N1CCCC(N1)C(=O)OCC(C)(C)C2	=	6.67
CCN1CCN(Cc2ccc(Nc3ncc(F)c(-c4cc(F)c5nc(C)n(C(C)C)c5c4)n3)nc2)CC1 + CCn1c(-c2cc(N3CCN(C)CC3)cnc2C(C)OC)c2c3cc(ccc31)-c1csc(n1)CC(NC(=O)C1CC1C)C(=O)N1CCCC(N1)C(=O)OCC(C)(C)C2	=	6.95
CCC(CC)c1cc(NC2CCC(N)C2)n2nccc2n1 (stereo not drawn) + CCn1c(-c2cc(N3CCN(C)CC3)cnc2C(C)OC)c2c3cc(ccc31)-c1csc(n1)CC(NC(=O)C1CC1C)C(=O)N1CCCC(N1)C(=O)OCC(C)(C)C2	=	5.80
C[C@@H](NC(=O)c1ncnc(N)c1Cl)c1ncc(C(=O)Nc2cc(C(F)(F)F)c(Cl)cn2)s1 + CCn1c(-c2cc(N3CCN(C)CC3)cnc2C(C)OC)c2c3cc(ccc31)-c1csc(n1)CC(NC(=O)C1CC1C)C(=O)N1CCCC(N1)C(=O)OCC(C)(C)C2	=	5.80
C=CC(=O)Nc1cc(Nc2nccc(-c3cn(C)c4ccccc34)n2)c(OC)cc1N(C)CCN(C)C + CCn1c(-c2cccnc2C(C)OC)c2c3cc(ccc31)N1CCOC(CC(NC(=O)C(C(C)C)N(C)C(=O)C3(F)CCN(C(=O)C#CC(C)(C)N(C)C)CC3)C(=O)N3CCCC(N3)C(=O)OCC(C)(C)C2)C1	<	6.00
CC(=O)OC12COC1CC(O)C1(C)C(=O)C(O)C3=C(C)C(OC(=O)C(O)C(NC(=O)OC(C)(C)C)c4ccccc4)CC(O)(C(OC(=O)c4ccccc4)C21)C3(C)C (stereo not drawn) + CCn1c(-c2cc(N3CCN(C)CC3)cnc2C(C)OC)c2c3cc(ccc31)-c1csc(n1)CC(NC(=O)C1CC1C)C(=O)N1CCCC(N1)C(=O)OCC(C)(C)C2	>	7.50
